experimental-target: GST-Dm-Relish (Drosophila melanogaster, UniProt Q94527 99-473)
Sequence: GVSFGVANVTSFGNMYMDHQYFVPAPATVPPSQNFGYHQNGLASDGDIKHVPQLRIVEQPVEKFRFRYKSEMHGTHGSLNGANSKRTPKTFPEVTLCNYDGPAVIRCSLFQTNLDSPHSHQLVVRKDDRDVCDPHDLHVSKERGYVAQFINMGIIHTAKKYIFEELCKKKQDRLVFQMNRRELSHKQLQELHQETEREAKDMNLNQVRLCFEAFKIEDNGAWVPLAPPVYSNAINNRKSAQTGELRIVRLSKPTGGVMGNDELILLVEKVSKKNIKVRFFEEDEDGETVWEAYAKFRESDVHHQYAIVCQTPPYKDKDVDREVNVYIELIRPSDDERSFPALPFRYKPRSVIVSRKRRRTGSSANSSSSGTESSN
assay-name: protein-binding microarray (PBM); PBM: ~300 nM protein, 6 mM HEPES pH 7.8, 80 mM KCl, 0.5 mM EDTA, 0.5 mM EGTA, 6% glycerol, 35 ng/ul poly-dIdC, 1% milk, 1 h, room temperature; Ap Aiptasia and Nv Nematostella (sea anemones) / Co Capsaspora / Aq Amphimedon (sponge) / Dm Drosophila / Hu human; RHD is the Rel homology domain; high values mean tight binding
applied-conditions: dsDNA, one strand shown
// N strictly below 5 z-score in binding signal; Y otherwise

{"sequence-entry": "CCGATTAACATCACGTAAACTCCTGATGTTAATCGGGTCTTGATTCGCTTGACGCTGCTG", "category-label": "N"}
{"sequence-entry": "CCGATTAACATCAAGGGAATACCTGATGTTAATCGGGTCTTGATTCGCTTGACGCTGCTG", "category-label": "Y"}

Exercise: Does the sequence `CCGATTAACATCAGGGAAATCACTGATGTTAATCGGGTCTTGATTCGCTTGACGCTGCTG` have recorded binding signal that is 5 z-score or more?
Key: Y

Exercise: Does the sequence `CCGATTAACATCAGGGGGGTGAATGATGTTAATCGGGTCTTGATTCGCTTGACGCTGCTG` have recorded binding signal that is 5 z-score or more?
Key: N

Exercise: Does the sequence `CCGATTAACATCAAAATCCCCCTTGATGTTAATCGGGTCTTGATTCGCTTGACGCTGCTG` have recorded binding signal that is 5 z-score or more?
Key: Y

Exercise: Does the sequence `CCGATTAACATCAGGGAAGTACATGATGTTAATCGGGTCTTGATTCGCTTGACGCTGCTG` have recorded binding signal that is 5 z-score or more?
Key: Y

Exercise: Does the sequence `CCGATTAACATCAAAAAATTTCCTGATGTTAATCGGGTCTTGATTCGCTTGACGCTGCTG` have recorded binding signal that is 5 z-score or more?
Key: N

Exercise: Does the sequence `CCGATTAACATCAGGAACTACCCTGATGTTAATCGGGTCTTGATTCGCTTGACGCTGCTG` have recorded binding signal that is 5 z-score or more?
Key: N

Exercise: Does the sequence `CCGATTAACATCACGAAAGTCCCTGATGTTAATCGGGTCTTGATTCGCTTGACGCTGCTG` have recorded binding signal that is 5 z-score or more?
Key: Y

Exercise: Does the sequence `CCGATTAACATCAGGAAATAACCTGATGTTAATCGGGTCTTGATTCGCTTGACGCTGCTG` have recorded binding signal that is 5 z-score or more?
Key: N

Exercise: Does the sequence `CCGATTAACATCAAAAGAACCCCTGATGTTAATCGGGTCTTGATTCGCTTGACGCTGCTG` have recorded binding signal that is 5 z-score or more?
Key: Y

Exercise: Does the sequence `CCGATTAACATCAGCATCCACGGTGATGTTAATCGGGTCTTGATTCGCTTGACGCTGCTG` have recorded binding signal that is 5 z-score or more?
Key: N

Exercise: Does the sequence `CCGATTAACATCAGGGGGGAGACTGATGTTAATCGGGTCTTGATTCGCTTGACGCTGCTG` have recorded binding signal that is 5 z-score or more?
Key: N

Exercise: Does the sequence `CCGATTAACATCAGGCATCCCCATGATGTTAATCGGGTCTTGATTCGCTTGACGCTGCTG` have recorded binding signal that is 5 z-score or more?
Key: N

Exercise: Does the sequence `CCGATTAACATCAGGGACGCCCCTGATGTTAATCGGGTCTTGATTCGCTTGACGCTGCTG` have recorded binding signal that is 5 z-score or more?
Key: Y

Exercise: Does the sequence `CCGATTAACATCACGGGAATGCCTGATGTTAATCGGGTCTTGATTCGCTTGACGCTGCTG` have recorded binding signal that is 5 z-score or more?
Key: N
